Tested on: MLN4924 resistant HCT-116 cell clones
Assay: Cell viability assay, 96 hours ATPlite, resistant clones
Type: cell-based
Conditions: Homo sapiens; four HCT-116 resistant clones
Experimental: HCT-116 cells and resistant clones were treated with DMSO or various concentrations of FIG. 7A. bortezomib, FIG. 7B. doxorubicin or FIG. 7C. SN-38 for 96 hours and cell viability was assessed with ATPlite assay. Cell line cultures were maintained using appropriate cell culture media as recommended by ATCC and as previously reported (Soucy et al., 2009, Milhollen et al., 2010). […] Cell viability assays completed using 96 hours ATPlite assay (PerkinElmer) as previously reported (Soucy et al., 2009).
VALUE_KIND: EC50

Given the molecule NS(=O)(=O)OC[C@@H]1C[C@@H](n2ccc3c(N[C@H]4CCc5ccccc54)ncnc32)C[C@@H]1O [MLN4924] , what is its reported EC50?
> 10 µM

----------
Biological target: wild type UBA3 (NAE) (Homo sapiens)
Sequence (Q8TBC4 whole entry): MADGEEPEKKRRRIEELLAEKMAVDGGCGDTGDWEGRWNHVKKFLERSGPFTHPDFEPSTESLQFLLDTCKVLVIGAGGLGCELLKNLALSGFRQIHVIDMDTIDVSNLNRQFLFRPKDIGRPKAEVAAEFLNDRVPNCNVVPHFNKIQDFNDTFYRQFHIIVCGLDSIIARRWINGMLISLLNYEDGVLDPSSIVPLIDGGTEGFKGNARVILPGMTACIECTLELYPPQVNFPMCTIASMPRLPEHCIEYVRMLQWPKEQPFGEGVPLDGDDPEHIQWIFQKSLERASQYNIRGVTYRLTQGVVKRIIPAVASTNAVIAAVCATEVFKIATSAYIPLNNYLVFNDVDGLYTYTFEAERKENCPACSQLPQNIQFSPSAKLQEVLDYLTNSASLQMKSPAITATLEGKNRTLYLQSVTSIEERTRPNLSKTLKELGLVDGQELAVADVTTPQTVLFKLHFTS
Sequence (Q13564 whole entry partner): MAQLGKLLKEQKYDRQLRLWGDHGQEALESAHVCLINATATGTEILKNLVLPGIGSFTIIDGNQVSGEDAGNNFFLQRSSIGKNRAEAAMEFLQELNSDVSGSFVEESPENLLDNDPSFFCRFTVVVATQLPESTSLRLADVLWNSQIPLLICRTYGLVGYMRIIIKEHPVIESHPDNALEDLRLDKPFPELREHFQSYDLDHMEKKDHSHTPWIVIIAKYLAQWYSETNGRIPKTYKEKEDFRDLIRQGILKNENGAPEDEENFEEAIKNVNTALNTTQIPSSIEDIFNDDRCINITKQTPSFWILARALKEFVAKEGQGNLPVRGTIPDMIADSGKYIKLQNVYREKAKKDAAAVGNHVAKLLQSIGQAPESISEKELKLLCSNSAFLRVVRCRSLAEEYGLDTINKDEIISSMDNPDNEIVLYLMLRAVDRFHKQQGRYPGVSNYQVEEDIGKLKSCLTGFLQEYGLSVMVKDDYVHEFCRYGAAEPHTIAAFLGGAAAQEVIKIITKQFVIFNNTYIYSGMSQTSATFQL
Sequence (Q15843 1-76 partner limits assumed): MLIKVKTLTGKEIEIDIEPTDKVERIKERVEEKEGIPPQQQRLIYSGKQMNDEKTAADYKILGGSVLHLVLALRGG
VALUE_KIND: IC50 (µM)
State just the number; it will be interpreted in µM.

Given the compound CNc1ncnc2c1ccn2C1CC(O)C(COS(N)(=O)=O)C1 (stereo not shown) , what is its reported IC50?
0.072

----------
Target: A573T UBA6 (Homo sapiens, UniProt A0AVT1, A573T)
Construct: His6 (N)
Experiment: UBA6 pyrophosphate exchange assay
Settings: A573T UBA6 5 nM, 1 mM ATP, 4 μM ubiquitin
pIC50: −log10 of the molar value.
VALUE_KIND: pIC50

Given the compound NS(=O)(=O)OC[C@@H]1C[C@@H](n2ccc3c(N[C@H]4CCc5ccccc54)ncnc32)C[C@@H]1O , what is its reported pIC50?
< 4.00

----------
System: NCI-H460 cells
Assay: Cell viability assay, 96 hours ATPlite
Format: cell-based
Details: Homo sapiens, NCI-H460 parental cells
VALUE_KIND: EC50

Tell me reported EC50 for NS(=O)(=O)OC[C@@H]1C[C@@H](n2ccc3c(N[C@H]4CCc5ccccc54)ncnc32)C[C@@H]1O [MLN4924] , tested with NCI-H460 cells.
1.07 µM

----------
Test system: HCT-116 cells
Test: Cell viability assay, 96 hours ATPlite
Type: cell-based
Conditions: Homo sapiens, HCT-116 parental cells
VALUE_KIND: EC50 (nM)
State just the number; it will be interpreted in nM.

Given the molecule NS(=O)(=O)OC[C@@H]1C[C@@H](n2ccc3c(N[C@H]4CCc5ccccc54)ncnc32)C[C@@H]1O , what is its reported EC50?
46

----------
Molecular target: A573D UBA6 (Homo sapiens, UniProt A0AVT1, A573D)
Construct: His6 (N); made in house; host or cells: Sf9 insect cells (baculovirus, single infection)
Sequence (A0AVT1 1-1052 A573D): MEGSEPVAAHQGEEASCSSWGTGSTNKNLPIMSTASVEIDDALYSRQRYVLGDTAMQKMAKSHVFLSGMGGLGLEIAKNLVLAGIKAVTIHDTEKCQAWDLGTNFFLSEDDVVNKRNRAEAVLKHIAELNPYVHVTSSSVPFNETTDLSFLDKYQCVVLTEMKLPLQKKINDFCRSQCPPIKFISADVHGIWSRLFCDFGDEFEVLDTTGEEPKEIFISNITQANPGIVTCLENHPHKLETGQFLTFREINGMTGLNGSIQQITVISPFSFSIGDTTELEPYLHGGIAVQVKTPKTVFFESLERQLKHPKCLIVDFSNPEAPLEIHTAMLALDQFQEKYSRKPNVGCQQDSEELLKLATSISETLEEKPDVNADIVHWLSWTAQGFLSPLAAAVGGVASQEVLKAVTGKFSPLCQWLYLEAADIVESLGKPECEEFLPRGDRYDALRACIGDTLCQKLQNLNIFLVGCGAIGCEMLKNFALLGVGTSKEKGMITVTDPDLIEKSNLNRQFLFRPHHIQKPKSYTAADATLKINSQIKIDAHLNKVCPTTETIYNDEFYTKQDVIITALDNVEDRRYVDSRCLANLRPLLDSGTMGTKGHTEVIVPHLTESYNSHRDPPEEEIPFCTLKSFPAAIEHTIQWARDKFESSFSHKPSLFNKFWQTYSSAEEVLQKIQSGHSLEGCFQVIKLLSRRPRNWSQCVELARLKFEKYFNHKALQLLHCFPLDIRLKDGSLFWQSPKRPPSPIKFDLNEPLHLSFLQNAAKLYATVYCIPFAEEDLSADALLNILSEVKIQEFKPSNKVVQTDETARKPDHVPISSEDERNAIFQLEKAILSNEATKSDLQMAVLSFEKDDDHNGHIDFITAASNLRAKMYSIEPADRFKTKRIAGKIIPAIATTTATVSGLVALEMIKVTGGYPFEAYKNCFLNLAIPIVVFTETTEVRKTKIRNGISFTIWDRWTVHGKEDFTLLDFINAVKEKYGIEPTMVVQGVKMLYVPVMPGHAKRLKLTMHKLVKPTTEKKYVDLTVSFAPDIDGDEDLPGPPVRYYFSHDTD
Assay: UBA6 pyrophosphate exchange assay
Type: biochemical
Conditions: A573D UBA6 5 nM, 1 mM ATP, 4 μM ubiquitin
pIC50: −log10 of the molar value.
VALUE_KIND: pIC50

Given the molecule NS(=O)(=O)OC[C@@H]1C[C@@H](n2ccc3c(N[C@H]4CCc5ccccc54)ncnc32)C[C@@H]1O , what is its reported pIC50?
< 4.00

----------
Assay: Antitumor study, subcutaneous xenografts in nude rats
Format: in vivo
Conditions: female, NCr Nude, rat, in vivo, sc; immunocompromised rats, subcutaneously, days 1, 4, 8 and 11 of a 21 day cycle; read-out: maximum tolerated dose
Procedure: Female NCr Nude rats (Taconic Farms) aged 6-8 weeks were inoculated with 10×10^6 HCT-116 cells subcutaneously in the right flank. Tumor growth was measured using digital vernier calipers. […] Rats received one dose per day biweekly for 2 weeks (days 1, 4, 8, and 11) of a 21-day therapy cycle. After three cycles of treatment refractory tumors were collected. […]
VALUE_KIND: MTD (mg/kg)
State just the number; it will be interpreted in mg/kg.

Given the molecule NS(=O)(=O)OC[C@@H]1C[C@@H](n2ccc3c(N[C@H]4CCc5ccccc54)ncnc32)C[C@@H]1O [MLN4924] , what is its reported MTD?
150

----------
Target: UBA3 variant with A171T mutation (NAE) (Homo sapiens, UniProt Q8TBC4, A171T)
Construct: His
Sequence (Q8TBC4 whole entry A171T): as the sequence (Q8TBC4 whole entry) above, with A171T counted along it
Sequence (Q13564 whole entry partner): as the sequence (Q13564 whole entry partner) above
Sequence (Q15843 1-76 partner limits assumed): as the sequence (Q15843 1-76 partner limits assumed) above
Test: NAE HTRF assay, IC50 at KM for ATP (120 μM)
Conditions: UBA3 A171T mutant; HTRF assay at KM for ATP, 120 μM
VALUE_KIND: IC50 (nM)
State just the number; it will be interpreted in nM.

Previously resolved entries follow.
compound="CNc1ncnc2c1ccn2C1CC(O)C(COS(N)(=O)=O)C1 (stereo not drawn)" value_kind=IC50 assay_value=630
compound="NS(=O)(=O)OCC1OC(n2cnc3c(NCc4ccccc4)ncnc32)C(O)C1O (stereo not drawn)" value_kind=IC50 assay_value=84

Given the compound Cc1ncnc2c1ccn2[C@@H]1C[C@@H](COS(N)(=O)=O)[C@@H](O)C1 , what is its reported IC50?
250
